# Tested on: AGS
# procedure-text: In vitro cancer cell cytotoxicity (MTT), AGS
# Assay type: cell-based
# assay-conditions: Homo sapiens, positive control, quantity not given
endpoint-label: IC50 (nM)
Express the result in nM but write the number alone.

Give me measured IC50, please, for this compound: CCc1c2c(nc3ccc(O)cc13)-c1cc3c(c(=O)n1C2)COC(=O)[C@]3(O)CC [7-Ethyl-10-hydroxycamptothecin]
4.2
